FYI, the data here is from ChEMBL document CHEMBL1221245.

target: Beta-1 adrenergic receptor (Homo sapiens, UniProt P08588)
Sequence (P08588 whole entry): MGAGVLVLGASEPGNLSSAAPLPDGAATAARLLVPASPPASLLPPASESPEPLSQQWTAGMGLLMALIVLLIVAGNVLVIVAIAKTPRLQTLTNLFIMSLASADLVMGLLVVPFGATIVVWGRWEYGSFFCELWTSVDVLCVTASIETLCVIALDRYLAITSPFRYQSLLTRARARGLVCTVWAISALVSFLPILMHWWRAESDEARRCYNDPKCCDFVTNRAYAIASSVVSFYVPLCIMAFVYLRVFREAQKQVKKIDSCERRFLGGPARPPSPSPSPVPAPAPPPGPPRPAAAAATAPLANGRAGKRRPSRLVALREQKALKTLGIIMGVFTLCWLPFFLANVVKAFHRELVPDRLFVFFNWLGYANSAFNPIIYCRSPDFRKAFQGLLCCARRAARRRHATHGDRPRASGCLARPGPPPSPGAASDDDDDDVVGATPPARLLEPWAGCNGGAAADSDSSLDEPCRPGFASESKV
Each item that follows carries a reported Ki.
Number only, in µM; omit the unit.

Solved entries (count: 4):
O=c1[nH]c2c(O)ccc([C@@H](O)CNCCCCc3ccccc3)c2s1 ... 0.015
CN(CCCNC[C@H](O)c1ccc(O)c2[nH]c(=O)sc12)c1ccccc1 ... 0.0084
O=c1[nH]c2c(O)ccc([C@@H](O)CNCCCc3ccccc3)c2s1 ... 0.002
O=c1[nH]c2c(O)ccc([C@@H](O)CNC3CCCCCC3)c2s1 ... 0.0788

Report the value of Ki obtained on Beta-1 adrenergic receptor (Homo sapiens, UniProt P08588) for "CC1(C)[C@@H]2CC[C@@]1(C)[C@@H](NC[C@H](O)c1ccc(O)c3[nH]c(=O)sc13)C2" .
0.45

Give Ki; test system Beta-1 adrenergic receptor (Homo sapiens, UniProt P08588); molecule "CC(C)(Cc1ccccc1)NC[C@H](O)c1ccc(O)c2[nH]c(=O)sc12"
0.0018

Jot down Ki (Beta-1 adrenergic receptor (Homo sapiens, UniProt P08588)) of "O=c1[nH]c2c(O)ccc([C@@H](O)CNCC34CC5CC(CC(C5)C3)C4)c2s1" .
0.0354

Report value: Ki, system: Beta-1 adrenergic receptor (Homo sapiens, UniProt P08588), molecule: "O=c1[nH]c2c(O)ccc([C@@H](O)CNCCOc3ccccc3)c2s1"
0.0178

Provide Ki, tested on Beta-1 adrenergic receptor (Homo sapiens, UniProt P08588), for "C[C@@H](NC[C@H](O)c1ccc(O)c2[nH]c(=O)sc12)C1CCCCC1" .
0.0015

Param request: Ki | system Beta-1 adrenergic receptor (Homo sapiens, UniProt P08588) | item "O=c1[nH]c2c(O)ccc([C@@H](O)CN[C@H]3CCCC[C@@H]3OCc3ccccc3)c2s1"
1.06
